- assay: yeast display, Sf9 membrane polyspecificity reagent, FACS + sequencing; frameworks hold sequencing errors
reported.metric: polyreactivity (PSR sort gate)

chain | reported.metric | value.reported
QVQLVESGGGLVQAGGSLRLSCAASGFIFDLYAMGWYRQAPGKERELVAAITTSGGTTYYADSVKGRFTISRDNAKNTVYLQMNSLKPEDTAVYYCAARRYSWYYYWGQGTQVTVSS | polyreactivity (PSR sort gate) | high polyreactivity
QVQLVESGGGLVQAGGSLRLSCAASGTFHWYAMGWYIQAPGKEMELVAAITGSGGNTYYADSVKGRFTISRDNAKNTVYLQMNSLKPEDTAVYYCAARIYTWSVEYTGYGYWGQGTQVTVSS | polyreactivity (PSR sort gate) | high polyreactivity
QDQLVESGGGLVQAGGSLRLSCAASGFTFYGYAMGWYRQAQGKERELVAAISSSGGRTYYADSVKGRFTISRDNAKNTVYLQMNSLKPEDTAVYYCAARARYIRGGGSRAYIGYYWGQGTQVTVSS | polyreactivity (PSR sort gate) | high polyreactivity

----------
- assay: yeast display, Sf9 membrane polyspecificity reagent, FACS + sequencing; frameworks hold sequencing errors

chain | polyreactivity (PSR sort gate)
QVQLVQSGGGLVQAGGSLRLSCAASGRIFGLNTMGWYRQAPGKERELVAAITSSAGSTYYADSVKGRFPISRDNAKNTVSLQMNSLKPEDTAVYYCAARVSYLGSFTSQRYYYWGQGTQVTVSS | high polyreactivity
QVQLVESGGGLVQAGGSLRLSCAASGFIFDANAMGWYRQAPGKERELVAAISRRGGRTYYADSVKGRFTISRDNAKNTVYLQMNSLKPEDTAVYYCAADWPDASRYGGGYWGQGTQVTVSS | high polyreactivity

----------
- assay: yeast display, Sf9 membrane polyspecificity reagent, FACS + sequencing; frameworks hold sequencing errors
reported.metric: polyreactivity (PSR sort gate)

Below are worked cases with known answers.
chain | polyreactivity (PSR sort gate)
QVQLVESVRGLVQAGGSLRLSCAASGSIFDYNAMGWYREAPGKEREFVASITYSGGSTNYADSVKGRFTISRDNAKNTVYLQMNSLKPEDTAVYYCSKTIGIVWIYYPGARYDYWGQGTQVTVSS | low polyreactivity
QVQLVESGGGLVEAGGSLRLSCAASGLTFYLYDMGWYRQAPGKERELVAAISRRGTSTYYADSVKGRFTISRDNAKNSVYLQMNSLKPEDTAVYYCAADRKVGRDYWGQGTQVTVSS | high polyreactivity
QVQLVESGGGLVQAGGSLRLSCAASGSIFRFYGMGWYRQAPGKERELVATISWSSGRTSYADSVKGRFTISRDNAKNTVYLQMKSLKPEDTAVYYCNADQWDKSYDYWGQGTQVTVSS | high polyreactivity
QVQLVESGGGLVQAGRSLRLSCAASGIISYRNGMGGYRQAPGKERELVASISKRADSTYYADSVKGRFTISRDNAKNTVYLQLNSLKPEDTAVYYCAARRLITCYGQTHYGYWGQGTQVTVSS | high polyreactivity

polyreactivity (PSR sort gate) for QVQLVESGGGLVQAGGSLRLSCAASGSICAYYAMGGYRQAPGTERELVAAISQSGGSTYYADSVKGRVTISRDNAKNTVYLQMNSLKPEDTADYYCAARFRYGYSGYRYDYWGQGTQVNVSS is high polyreactivity

polyreactivity (PSR sort gate) for QVQLVDSGGGLVQAGASLRLSCAASGSIFRFYAMGWYRQAPGKERELVAAITSRGSTNYADSVKGRFTISRDNAKNTVYLQMKSLKPEDTAVYYCAAELVYFVIYDYWGLGTQVTVSS is low polyreactivity

polyreactivity (PSR sort gate) for QVQLVESGGGLVQAGGSLRLSCASSGSIFKAYAMGLSRQAPGKERELVAAIRGSGGRTYYADSVKGRFTISRDYAKNTVYLQMNSLKPEDTAVYYCNTVRSTPNGLDYDYWGQGTQVTVSS is low polyreactivity

----------
- assay: yeast display, Sf9 membrane polyspecificity reagent, FACS + sequencing; frameworks hold sequencing errors
reported.metric: polyreactivity (PSR sort gate)

Below are worked cases with known answers.
chain | polyreactivity (PSR sort gate)
QVQLVESGGGLVQAGGSLRLSCAASGSIFDFNAMGWYRQAPGKERELVATIRYSGGSTYYADSVKGRFTISRDNAKNTVYLQMNSLKPEDTAVYYCIFRSPSYEYDYWGQGTQVTVSS | low polyreactivity
QVQLVESAVGLVQAGGSHRLSCAASAGTFYFYAMGWYRQAPGKERELVATITRGGSTYYADSVKGRFTISRDNAKNTVYLQMNSLNPEDTAVYYCAARQYSRRRSPVSTWYYYWGQGTQVTVSS | high polyreactivity
QVQLVESGGGLVQAGGSLRLSCAASGRIFVVYAMGWYRQAPGKERELVASITWRGGSTYYADSVKGRFTISRDNAKNTVYLQMNSLKPEDTAVYYCAARYARYLLYDYWGQGTQVTVSS | low polyreactivity
QVQLVESGGGLVQAGGSLRLSCAASGSIFYHNAMGWYRQAPGKERELVAAITSRGGRTTYADSVKGRFTISRDNAKNTVYLQMNSLKPEDTAVYYCNAVYTGYSYISRVDYWGQGTQVTVSS | low polyreactivity
QVQLVESGGGLVQAGGSLRIRCAATGFIFLDYAMGWYRQAPGKERELVAAISSRGARTYYADSVKGRFTISRDNAKNTVYLQMNSLKPEDTAVYYCAARGPLDRYGYWGQGTQVTVSS | high polyreactivity

polyreactivity (PSR sort gate) for QVQLVESGGGLVQAGGSLRLSCAASGSIFTEKAMGWYRQAPGKERELVATITITGSTNYADSVKGRFTISRDNAKNTVYLQLNSLKPEETAVYYCNADLYIAFSASAYDYWGQGTQVTVSS is low polyreactivity

polyreactivity (PSR sort gate) for QVQLVESRGGLVQAGGSLRLSCAASGSTFYAYAMGWYRQAPGKERDLVAAISSSGGSTYYADSVKGRFTISRDNAKNTVYLQMNSLKTEDTAVYYCAAYDSVQKYWILGFDYWGQGTQVTVSS is low polyreactivity

polyreactivity (PSR sort gate) for QVQLVESGGGLVQAGGSLRLSCAASGRTFSTNAMGWYRQAPGKERELVAAISASGGSTYYADSVKGRFTISRDNAKNTVYLQMNSLKPEDTAVYYCAAYPGQWRTGYDYWGQGTQVTVSS is high polyreactivity

polyreactivity (PSR sort gate) for QVQLVESGGGLVQAGGSLRLSCAASGRIFWAYAMGWYRQAPGKERELVAAINGSGGSTNYADSVKGRFTISRDNAKNTVYLQMNSLIPEDTAVYYCAADWSLRLYDYWGQGTQVTVSS is low polyreactivity

polyreactivity (PSR sort gate) for QVQLVESGGGLVQAGGSLRLSCAASGFTFDTNAMGWYRQAPGKERELVAAISWGGDTTYYADSVKGRFTISRDNAKNTVYLQMNSLKTEDTAVYYCNVYWYDWWGYDYWGQGTQVTVSS is high polyreactivity

polyreactivity (PSR sort gate) for QVQLVESGGGLVQAGGSLRLSCAASGRTCVGNAMGWYRQAPGKERELVAAIRRGGDSTYYADSVKGRFTISRDNAKNTVYLQMNSLKPEDTAVSYCNAVSLQPYRGGFDYWGQGTQVTVSS is low polyreactivity

----------
- assay: yeast display, Sf9 membrane polyspecificity reagent, FACS + sequencing; frameworks hold sequencing errors

chain | polyreactivity (PSR sort gate)
QVQLVESGGGLVQAGGSLRLSCAASGSIYGDNAMGWYRQAPGKERELVAAINYNGGRTYYADSVKGRFTISRDTAKNTVYLQMNSLKPEDTAVYSCAKDNYQAPVQQYPFDYWGQGTQVTVSS | low polyreactivity
QVQLVESGGGLVQAGGSHRLSCAASGRTFEYNGKGWYRQAPGKERELVAAITRGGSTYYADSVKGRFTISRDNAKNTVYLQMNSLKPEDTAVYYCAAEVGWSRYKWLEYWGQGTQVTVSS | low polyreactivity

----------
- assay: yeast display, Sf9 membrane polyspecificity reagent, FACS + sequencing; frameworks hold sequencing errors
reported.metric: polyreactivity (PSR sort gate)

Below are worked cases with known answers.
chain | value.reported
QVQLVESGGGLVQAGGSLRLSCAASGSIFYGYAMGWYRQAPGKERELVAAIRSRGGSTYYADSVKGRFTNSRDNEKNTVYLQMKCLKPEDTAVYYCNAVCRARTLCSNTYGYWGQGTQVSVSS | high polyreactivity
QVQLVESGGGLGQAGGSLRLSSAASGGTFGSNTMGWYRQAPGKERELVAAITSGVSTYYADSVKGRFTISRDNAKNTVYLQMNSLKPEDTAVYYCAADTTQLQGVEGDYWGQGTQVTVSS | low polyreactivity
QVQLVESGGGLVQAGGSLRLSCAASGRTFTPNAMGGYRQAPGKERELVAAIDWRGGRTYYADSVKGRFTISRDNAKNTVYLQMNSLKPEDSAVYYCAARVDGYHYKSAGYSYGVYYWGQGTQVTVSS | low polyreactivity
QVQLVESGGGLVQAGGSLRLSCAASGFTFGRNAMGWYRQAPGKEREFVAAISKSGTSTYYADSVKGRFTISRDNAKNTVYLQMNSLKPEDTAVYYCARTIYAKRWDFDYWGQGTQVTVSS | low polyreactivity
QVQLVESGGGLVQAGGSLRLSCAASGSIFYGYAMGWYRQAPGKERELVAAISGGGRTNYADSVKGRFTISRDNAKNTVYLQMNSLKPEDTAVYYCARRSQRGIYSMYYWGQGTQVTVSS | low polyreactivity

polyreactivity (PSR sort gate) for QVQLVESGGGLVQAGGSLRLSCAAAGRTFYNYAMGWYRQAPGKERELVAAIDWGSDSTYYADSVKGRFTISRDNAKNTVYLQMNSLKPEDTAVYYCAKRPKNKPVLGDYDHWGQGTQVTVSS is low polyreactivity

polyreactivity (PSR sort gate) for QVQLVESGGGLVQAGGSLRLSCASSGRTFNFYAMGWYRQAPGKERELVAAISHGDSTYYADSVKGRFTISRDNAKNTVYLQMNSLKPEDTAVYYCAASQKYYLLKYEYWGQGTQVTVSS is low polyreactivity

polyreactivity (PSR sort gate) for QVQLVESGGGLVQAGGSLRLSCAASGFICAQNAMGWYRQAPGKERELVADISGRGGRTYYADSVKGRFTISRDNAKNTVYLQMNSLKPEDTAVYYCAKDTYLQIYQYGYWGQGTQVTVSS is high polyreactivity

polyreactivity (PSR sort gate) for QVQLVESGGGLVQAGGSLRLSCAASGRTFYRYAMGWYRQAPGKERLVAAITWNGGSTYYADSVKGRFTISRDNAKNTVYLQMNSLNPEDTAVYYCAATFGGVSWRRPHRFDYWGQGTQVTVSS is high polyreactivity

polyreactivity (PSR sort gate) for QLQLVESGGGLVQAGGSRRISCAASGRTFDSNAMGSYRHAPGKERELVAAIYADSVKGRFTISRENAKNTVSLQMNFLKPEDTAVYYCAAETYSGQTYLGEYDFWGQGTQVTVSS is low polyreactivity

polyreactivity (PSR sort gate) for QVQLVESGGGLVQAGGSLRLSCAASGSTFQPYAMGWYRQAPGKEREFVATISGSAGSTYYADSVKGRFKISRDNAKNTVYLQMNSLKPEDTAVYYCNARPARKSLDYDYWGQGTQVTVSS is low polyreactivity
